- assayedSystem: T1, human SLITRK6 on cells (human, UniProt Q9H5Y7 27-841)
- T1 construct: whole, on cells
- assayName: flow cytometry on 293F-SLITRK6-C9 cells
observedProperty: pEC50
In simple prose, pEC50 is minus the logarithm base ten of a concentration in moles per litre.

**Query** What measured pEC50 goes with phA290-LD038 (8) (antibody, V domains shown, drug-linker LD038 on cysteines freed by TCEP reduction, DAR 8.0; positions not given, also called phA290 ADC) VH: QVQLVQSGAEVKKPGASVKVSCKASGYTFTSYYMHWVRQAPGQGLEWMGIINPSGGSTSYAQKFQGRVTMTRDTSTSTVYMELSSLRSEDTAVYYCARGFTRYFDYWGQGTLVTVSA VL: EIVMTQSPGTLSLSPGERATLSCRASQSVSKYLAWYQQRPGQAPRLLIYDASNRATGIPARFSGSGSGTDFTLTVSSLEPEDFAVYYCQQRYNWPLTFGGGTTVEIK ?
**Result** 9.10

**Query** Try this binder too: hu1H2-13-LD038 (8) (antibody, V domains shown, drug-linker LD038 on cysteines freed by TCEP reduction, DAR 8.0; positions not given, also called hu1H2-13 ADC) VH: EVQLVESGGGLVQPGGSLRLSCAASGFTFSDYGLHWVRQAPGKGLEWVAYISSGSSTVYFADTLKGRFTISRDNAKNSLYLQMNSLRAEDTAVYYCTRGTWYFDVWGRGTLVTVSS VL: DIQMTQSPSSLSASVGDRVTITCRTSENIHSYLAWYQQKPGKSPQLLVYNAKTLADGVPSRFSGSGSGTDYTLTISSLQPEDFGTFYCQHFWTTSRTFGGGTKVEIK
**Result** 8.80

**Query** Another binder to look at: hu14G1-03 (antibody, V domains shown) VH: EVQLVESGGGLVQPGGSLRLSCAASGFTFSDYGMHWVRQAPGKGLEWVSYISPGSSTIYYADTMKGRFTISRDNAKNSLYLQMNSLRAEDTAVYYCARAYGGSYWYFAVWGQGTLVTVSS VL: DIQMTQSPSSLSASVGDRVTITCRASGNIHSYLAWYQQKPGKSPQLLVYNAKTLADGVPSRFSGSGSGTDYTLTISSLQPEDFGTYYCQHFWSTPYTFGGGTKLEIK
**Result** 8.75

**Query** Again, but for phA290 (antibody, V domains shown, From phage display, then full-length construction; Only the variable regions are tied to the name) VH: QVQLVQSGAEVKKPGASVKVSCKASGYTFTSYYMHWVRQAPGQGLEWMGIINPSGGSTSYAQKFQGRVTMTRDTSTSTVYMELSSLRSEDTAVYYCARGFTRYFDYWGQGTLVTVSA VL: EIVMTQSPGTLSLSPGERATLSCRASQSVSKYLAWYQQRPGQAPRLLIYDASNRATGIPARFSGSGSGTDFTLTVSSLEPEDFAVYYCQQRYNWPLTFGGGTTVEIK
**Result** 8.94

**Query** Same for Sirtratumab-LD038 (8) (antibody, V domains shown, drug-linker LD038 on cysteines freed by TCEP reduction, DAR 8.0; positions not given, also called Sirtratumab ADC) VH: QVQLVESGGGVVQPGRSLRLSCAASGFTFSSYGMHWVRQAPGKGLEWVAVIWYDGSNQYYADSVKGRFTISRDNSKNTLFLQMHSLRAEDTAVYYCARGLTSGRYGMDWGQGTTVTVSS VL: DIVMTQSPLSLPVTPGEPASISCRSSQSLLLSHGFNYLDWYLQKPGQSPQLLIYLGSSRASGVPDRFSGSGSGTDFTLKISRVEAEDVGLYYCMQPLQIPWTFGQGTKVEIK
**Result** 8.88

Data credit: patent US20250296992A1
